- test: hydrolysis in aqueous acidic medium (simulated gastro-intestinal juices), HPLC
- Assay type: physicochemical
- conditionParameters: 210 min; THF: aqueous conc. HCl 1:1, 37° C.; read-out: Ester (%)
- Protocol: The rates of hydrolysis of 2-(acetyloxy)benzoic acid (Aspirin) ethoxy carbonyloxy ethyl ester to salicylethoxy carbonyloxy ethyl ester in the aqueous acidic medium (simulated gastro-intestinal juices) were determined by dissolving the ester to a pre-determined concentration in the acidic medium containing THF: aqueous conc. HCl=1:1 and the rate of hydrolysis at 37° C. was measured by the HPLC method. […]
measureName: remaining at 3.5 h (%)

compound | measureName | quantitativeResult
CCOC(=O)OC(C)OC(=O)c1ccccc1OC(C)=O (stereo not shown) | remaining at 3.5 h | 76
